- Experimental protocol: mn = molality of the nth substance listed, in mol/kg
- Particulars: 313.15 K; 100 kPa; Liquid; Vibrating tube method; m1 = 0.2
Readout name: mass density (kg/m3)

Compound	Unit	Test result
C[C@@H](O)[C@H](N)C(=O)O [L-threonine] + O	kg/m3	1000.4
N=C(N)NCCC[C@H](N)C(=O)O [L-arginine] + O	kg/m3	1001.76
CC(C)[C@H](N)C(=O)O [L-valine] + O	kg/m3	997.4
OC[C@@H](O)[C@@H](O[C@H]1O[C@H](CO)[C@@H](O)[C@H](O)[C@H]1O)[C@H](O)[C@@H](O)CO [4-O-α-D-glucopyranosyl-D-glucitol] + O	kg/m3	1016.42
C[C@H](N)C(=O)O [(S)-2-aminopropanoic acid] + O	kg/m3	997.81

====

- Experimental protocol: mn = molality of the nth substance listed, in mol/kg
- Particulars: 313.15 K; 100 kPa; Liquid; Vibrating tube method; m1 = 0.7
Readout name: mass density (kg/m3)

Compound	Readout name	Unit	Test result
NCC(=O)O [2-aminoacetic acid] + O	mass density	kg/m3	1013.06
N=C(N)NCCC[C@H](N)C(=O)O [L-arginine] + O	mass density	kg/m3	1023.18
C[C@H](N)C(=O)O [(S)-2-aminopropanoic acid] + O	mass density	kg/m3	1010.9
C[C@@H](O)[C@H](N)C(=O)O [L-threonine] + O	mass density	kg/m3	1019.41

====

- Experimental protocol: mn = molality of the nth substance listed, in mol/kg
- Particulars: 293.15 K; 100 kPa; Liquid; Vibrating tube method; m1 = 0.4
Readout name: mass density (kg/m3)

Compound	Unit	Test result
N=C(N)NCCC[C@H](N)C(=O)O [L-arginine] + O	kg/m3	1017.19
CC(C)[C@H](N)C(=O)O [L-valine] + O	kg/m3	1008.55
OC[C@@H](O)[C@@H](O[C@H]1O[C@H](CO)[C@@H](O)[C@H](O)[C@H]1O)[C@H](O)[C@@H](O)CO [4-O-α-D-glucopyranosyl-D-glucitol] + O	kg/m3	1045.59
C[C@@H](O)[C@H](N)C(=O)O [L-threonine] + O	kg/m3	1014.57
NCC(=O)O [2-aminoacetic acid] + O	kg/m3	1010.73

====

- Experimental protocol: mn = molality of the nth substance listed, in mol/kg
- Particulars: 303.15 K; 100 kPa; Liquid; Vibrating tube method; m1 = 0.3
Readout name: mass density (kg/m3)

Molecule	Unit	mass density
NCC(=O)O [2-aminoacetic acid] + O	kg/m3	1004.97
C[C@H](N)C(=O)O [(S)-2-aminopropanoic acid] + O	kg/m3	1004.03
N=C(N)NCCC[C@H](N)C(=O)O [L-arginine] + O	kg/m3	1009.89
CC(C)[C@H](N)C(=O)O [L-valine] + O	kg/m3	1003.43
C[C@@H](O)[C@H](N)C(=O)O [L-threonine] + O	kg/m3	1007.91

====

- Experimental protocol: mn = molality of the nth substance listed, in mol/kg
- Particulars: 303.15 K; 100 kPa; Liquid; Capillary tube (Ostwald / Ubbelohde) method; m1 = 0.2
Readout name: viscosity (mPa·s)

Molecule	Readout name	Test result
CC(C)[C@H](N)C(=O)O [L-valine] + O	viscosity	0.864
NCC(=O)O [2-aminoacetic acid] + O	viscosity	0.82
N=C(N)NCCC[C@H](N)C(=O)O [L-arginine] + O	viscosity	0.879
C[C@@H](O)[C@H](N)C(=O)O [L-threonine] + O	viscosity	0.85
OC[C@@H](O)[C@@H](O[C@H]1O[C@H](CO)[C@@H](O)[C@H](O)[C@H]1O)[C@H](O)[C@@H](O)CO [4-O-α-D-glucopyranosyl-D-glucitol] + O	viscosity	0.95
C[C@H](N)C(=O)O [(S)-2-aminopropanoic acid] + O	viscosity	0.837
